# Protocol Details: Characteristics of lipid nanoparticles (size, PDI, encapsulation efficiency)
# Format: physicochemical
# Applied Conditions: LNP with DSPC, cholesterol, PEG-1 and the compound
Assay Endpoint: Size (nm)
# unit: nm | format: bare number

{"columns": ["Smiles Str", "Assay Endpoint", "Value Reported"],
 "data": [
  ["CCCCCCC(CCCCCC)OC(=O)CCCCCCCN(CCCCCCCC(=O)OCCC(CCC)CCC)CCCNc1c(NC)c(=O)c1=O", "Size (nm)", 73.6]
]}

Fill in reported Size (nm) for this entry: CCCCCC(CCCCC)OC(=O)CCCCCCCN(CCCCCCCC(=O)OCCC(CCCC)CCCC)CCCNc1c(NC)c(=O)c1=O
63.5

Fill in reported Size (nm) for this entry: CCCCCCCC(CCCCCCC)OC(=O)CCCCCCCN(CCCCCCCC(=O)OCCC(CCC)CCC)CCCNc1c(NC)c(=O)c1=O
56.2

Fill in reported Size (nm) for this entry: CCCCCCC(CCCCCC)OC(=O)CCCCCCCN(CCCCCCCC(=O)OCCC(CCCC)CCCC)CCCNc1c(NC)c(=O)c1=O
60.4
